# protocol: Pharmacokinetics of BPC157 in beagle dogs after intravenous and intramuscular administration (plasma)
# condition_summary: both, beagle, dog, plasma, iv, 6 μg/kg
measured_property: AUC(0-inf) (ng·h/mL)
One number for each entry, in ng·h/mL.

Query block: For the molecule CC(C)C[C@H](NC(=O)CNC(=O)[C@H](C)NC(=O)[C@H](CC(=O)O)NC(=O)[C@H](CC(=O)O)NC(=O)[C@H](C)NC(=O)[C@@H]1CCCN1C(=O)[C@H](CCCCN)NC(=O)CNC(=O)[C@@H]1CCCN1C(=O)[C@@H]1CCCN1C(=O)[C@@H]1CCCN1C(=O)[C@H](CCC(=O)O)NC(=O)CN)C(=O)N[C@H](C(=O)O)C(C)C [BPC157] , give its reported AUC(0-inf).
Result block: 1.28

----------
# protocol: Pharmacokinetics of BPC157 in SD rats after intravenous and intramuscular administration (plasma, LC-MS/MS)
# condition_summary: both, Sprague-Dawley, rat, plasma, im, 500 μg/kg
measured_property: AUC(0-inf) (ng·h/mL)
Answers are plain numbers, in ng·h/mL.

Query block: For CC(C)C[C@H](NC(=O)CNC(=O)[C@H](C)NC(=O)[C@H](CC(=O)O)NC(=O)[C@H](CC(=O)O)NC(=O)[C@H](C)NC(=O)[C@@H]1CCCN1C(=O)[C@H](CCCCN)NC(=O)CNC(=O)[C@@H]1CCCN1C(=O)[C@@H]1CCCN1C(=O)[C@@H]1CCCN1C(=O)[C@H](CCC(=O)O)NC(=O)CN)C(=O)N[C@H](C(=O)O)C(C)C [BPC157] , write its AUC(0-inf).
Result block: 32.2

----------
# protocol: Pharmacokinetics of BPC157 in SD rats after intravenous and intramuscular administration (plasma, LC-MS/MS)
# condition_summary: both, Sprague-Dawley, rat, plasma, im, 20 μg/kg
measured_property: AUC(0-inf) (ng·h/mL)
One number for each entry, in ng·h/mL.

Query block: Specify AUC(0-inf) for CC(C)C[C@H](NC(=O)CNC(=O)[C@H](C)NC(=O)[C@H](CC(=O)O)NC(=O)[C@H](CC(=O)O)NC(=O)[C@H](C)NC(=O)[C@@H]1CCCN1C(=O)[C@H](CCCCN)NC(=O)CNC(=O)[C@@H]1CCCN1C(=O)[C@@H]1CCCN1C(=O)[C@@H]1CCCN1C(=O)[C@H](CCC(=O)O)NC(=O)CN)C(=O)N[C@H](C(=O)O)C(C)C and stop.
Result block: 1.25

----------
# protocol: Pharmacokinetics of BPC157 in beagle dogs after intravenous and intramuscular administration (plasma)
# condition_summary: dog, in vivo, im
measured_property: Tmax (min)
Numbers only, in min.

Query block: Item CC(C)C[C@H](NC(=O)CNC(=O)[C@H](C)NC(=O)[C@H](CC(=O)O)NC(=O)[C@H](CC(=O)O)NC(=O)[C@H](C)NC(=O)[C@@H]1CCCN1C(=O)[C@H](CCCCN)NC(=O)CNC(=O)[C@@H]1CCCN1C(=O)[C@@H]1CCCN1C(=O)[C@@H]1CCCN1C(=O)[C@H](CCC(=O)O)NC(=O)CN)C(=O)N[C@H](C(=O)O)C(C)C : provide Tmax
Result block: 10.5

----------
# protocol: Pharmacokinetics of BPC157 in beagle dogs after intravenous and intramuscular administration (plasma)
# condition_summary: both, beagle, dog, plasma, im, 30 μg/kg
measured_property: Cmax (ng/mL)
Give bare numbers, in ng/mL.

Query block: Give the reported Cmax for this molecule. CC(C)C[C@H](NC(=O)CNC(=O)[C@H](C)NC(=O)[C@H](CC(=O)O)NC(=O)[C@H](CC(=O)O)NC(=O)[C@H](C)NC(=O)[C@@H]1CCCN1C(=O)[C@H](CCCCN)NC(=O)CNC(=O)[C@@H]1CCCN1C(=O)[C@@H]1CCCN1C(=O)[C@@H]1CCCN1C(=O)[C@H](CCC(=O)O)NC(=O)CN)C(=O)N[C@H](C(=O)O)C(C)C
Result block: 3.3

----------
# protocol: Pharmacokinetics of BPC157 in beagle dogs after intravenous and intramuscular administration (plasma)
# condition_summary: both, beagle, dog, plasma, im, 30 μg/kg
measured_property: bioavailability
Report as: number unit

Query block: Determine from records and report bioavailability for CC(C)C[C@H](NC(=O)CNC(=O)[C@H](C)NC(=O)[C@H](CC(=O)O)NC(=O)[C@H](CC(=O)O)NC(=O)[C@H](C)NC(=O)[C@@H]1CCCN1C(=O)[C@H](CCCCN)NC(=O)CNC(=O)[C@@H]1CCCN1C(=O)[C@@H]1CCCN1C(=O)[C@@H]1CCCN1C(=O)[C@H](CCC(=O)O)NC(=O)CN)C(=O)N[C@H](C(=O)O)C(C)C
Result block: 47.6%

----------
# condition_summary: rat, in vivo, im, t1/2
measured_property: half-life (min)
One number for each entry, in min.

Query block: Assign half-life to the following record: CC(C)C[C@H](NC(=O)CNC(=O)[C@H](C)NC(=O)[C@H](CC(=O)O)NC(=O)[C@H](CC(=O)O)NC(=O)[C@H](C)NC(=O)[C@@H]1CCCN1C(=O)[C@H](CCCCN)NC(=O)CNC(=O)[C@@H]1CCCN1C(=O)[C@@H]1CCCN1C(=O)[C@@H]1CCCN1C(=O)[C@H](CCC(=O)O)NC(=O)CN)C(=O)N[C@H](C(=O)O)C(C)C
Result block: 18.5

----------
# protocol: Pharmacokinetics of BPC157 in SD rats after intravenous and intramuscular administration (plasma, LC-MS/MS)
# condition_summary: both, Sprague-Dawley, rat, plasma, im, 20 μg/kg
measured_property: MRT (min)
One number for each entry, in min.

Query block: Tell me measured MRT for CC(C)C[C@H](NC(=O)CNC(=O)[C@H](C)NC(=O)[C@H](CC(=O)O)NC(=O)[C@H](CC(=O)O)NC(=O)[C@H](C)NC(=O)[C@@H]1CCCN1C(=O)[C@H](CCCCN)NC(=O)CNC(=O)[C@@H]1CCCN1C(=O)[C@@H]1CCCN1C(=O)[C@@H]1CCCN1C(=O)[C@H](CCC(=O)O)NC(=O)CN)C(=O)N[C@H](C(=O)O)C(C)C please.
Result block: 7.27
